Tested on: Plasmodium falciparum Sir2 (PF13_0152, Sir2A)
Experiment: pfSir2 binders on small-molecule microarrays, primary screen, biochemical, small-molecule microarray, 635 nm fluorescence (AID 1098);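 further: score merges spot fluorescence intensity with its signal-to-noise ratio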
Conditions: small-molecule microarray binding, fluorescence 635 nm; higher = more signal
Param threshold (1) applies to composite z-score; output t when value >= threshold, f when value < threshold.

Molecule	Class
CCOC(=O)C[C@H]1[C@H](OC(=O)c2ccc(-c3ccccc3)cc2)[C@@H](NC(=O)C2CCCCC2)c2cc(OCCCO)ccc2N1C(=O)c1ccc2ccccc2n1	f
CC(C)(C)OC(=O)CC[C@]1(C(=O)NCc2ccccc2)COC(c2ccc(OCCCO)cc2)=N1	t
C=CCOC(=O)[C@H]1[C@@H]2C(=O)O[C@@H](c3ccccc3)[C@@H](c3ccccc3)N2[C@@H](c2ccc(OCCOC(=O)[C@H]3C[C@H]4C(=O)N5CCC[C@H]5C(=O)N4[C@H]3c3cccc(OCCO)c3)cc2)[C@]12C(=O)Nc1ccccc12	t
COCCCNC(=O)[C@@]1(C)c2ccccc2C(=O)N(Cc2cc(F)cc(C(F)(F)F)c2)[C@H]1c1ccc(CO)cc1	f
COc1ccc(C#Cc2ccc3c(c2)[C@]2(C(=O)N3)[C@H](c3ccc(O)cc3)N3[C@H](c4ccccc4)[C@H](c4ccccc4)OC(=O)[C@H]3[C@@H]2C(=O)N2CCN(c3ncccn3)CC2)cc1	f
COC(=O)C(CC#Cc1ccc2c(c1)[C@]1(C(=O)N2)[C@H](C(N)=O)[C@H]2C(=O)O[C@H](c3ccccc3)[C@H](c3ccccc3)N2[C@@H]1c1ccc(O)cc1)C(=O)OC	t
CC(C)(C)OC(=O)CC[C@@]12N=C(c3ccc(OCCCO)cc3)O[C@@H]1c1ccccc1N(Cc1ccccc1)C2=O	f
COC(=O)C1=CC(CCCO)=CC(C2CC2)N(Cc2cc3c(cc2Br)OCO3)C=C1C(=O)OC (stereo not drawn)	t
O=C1N(CCS(=O)(=O)c2ccccc2)Cc2ccccc2[C@@H]2OC(c3ccc(OCCCO)cc3)=N[C@]12Cc1ccccc1	t
C=CCNC(=O)[C@H]1[C@@H]2C(=O)O[C@@H](c3ccccc3)[C@@H](c3ccccc3)N2[C@@H](c2ccccc2OCCO)[C@]12C(=O)N(C(=O)OCCOC)c1ccc(C#CCCO)cc12	f
COC(=O)C1=CC(c2ccc(CO)cc2)=CC(c2cccs2)N(C)C=C1C(=O)OC (stereo not drawn)	t
COC(=O)c1c2oc(c1C(=O)OC)C(=O)N[C@@H](C(C)C)Cn1nncc1C1(CCCCC1)NC(=O)N[C@H](CO)CC2	t
NC(=O)N1C(=O)C2C(C1=O)C1C=C(c3ccc(CO)cc3)C2C(C2CC2)N1Cc1cc2c(cc1Br)OCO2 (stereo not drawn)	f
